# Tested on: 876862-298-R-J1-PDC complex spheroids, viability % test/control;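 further: spheroids exposed to drugs for 7 days before readout; 100% = DMSO vehicle control wells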
# METHOD_DESCRIPTION: Anticancer human tumor 876862-298-R-J1-PDC patient-derived endometrial carcinoma cell line growth inhibition [CLK]
# TEST_SETTINGS: second compound 0.1 µM; first compound 0.3 µM; stronger effect = lower value

# MOLECULE, viability, T/C, %
rows = [
    ("C=CC(=O)Nc1cc(Nc2nccc(-c3cn(C)c4ccccc34)n2)c(OC)cc1N(C)CCN(C)C + CNC(=O)c1ccc(Nc2nc(OC3CCCC3)c3c(-c4ccc5nc(C)oc5c4)c[nH]c3n2)c(OC)c1", 31.3),
    ("CC(C)CC(NC(=O)C(Cc1ccccc1)NC(=O)c1cnccn1)B(O)O (stereo not drawn) + CN1CCN(c2cc(C(=O)Nc3cc4cc(-c5cnn(C)c5)ccc4cn3)ccn2)CC1", 0.26),
    ("NC(=O)C(=Cn1cnc(-c2cc(C(F)(F)F)cc(C(F)(F)F)c2)n1)c1cncnc1 + CN1CCN(c2cc(C(=O)Nc3cc4cc(-c5cnn(C)c5)ccc4cn3)ccn2)CC1", 4.49),
]
